B1: ADAMTSL2 (parent)
chain: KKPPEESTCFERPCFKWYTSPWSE

variants of: B1; assay: protein stability index of a GFP-peptide fusion (GPS, HEK-293T) (PSI 1-6); higher = more stable; conditions: c terminus: a fixed tail appended;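 note: lentivirally expressed fusions sorted by FACS into six bins by GFP to DsRed ratio, PSI derived from sequencing read proportions per bin multiplied by bin number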
Label MET when protein stability index is at or above 3; anything below gets NOT MET.

Check out these entries, answers already filled in.
seq string: KKPPEESTCFERPCFKWYTSPTSE [W22T]
discrete label: MET
--
seq string: KKPPEESTCFERPCIKWYTSPWSE [F15I]
discrete label: NOT MET
--
seq string: KKPPEESTCFERPLFKWYTSPWSE [C14L]
discrete label: NOT MET
--
seq string: KKPPEESTCFERPCFKWYLSPWSE [T19L]
discrete label: NOT MET
--
seq string: KKPPEESTCFERPCFKCYTSPWSE [W17C]
discrete label: NOT MET
--
seq string: KCPPEESTCFERPCFKWYTSPWSE [K2C]
discrete label: NOT MET

API: above_or_equal(metric=protein stability index, cutoff=3) for item KKPPEESTSFERPCFKWYTSPWSE [C9S]
NOT MET

Note, next up: KKPPEESTCFERPCFKDYTSPWSE [W17D]
MET

Moving on to KKPPEESTCFERPCFKWYTSYWSE [P21Y]
NOT MET
